The values you see were collected from patent US20240082416A1.

test.system: Pol II (Homo sapiens, UniProt P24928)
Construct: HeLaScribe® nuclear extract containing Pol II and all other transcription factors; purchased Promega; host or cells: HeLa nuclear extract (endogenous protein)
test.details: In vitro transcription runoff assay using HeLaScribe nuclear extract
Type: biochemical
protocol.conditions: IC50 (nM), Table 11; 3 parameter logistic fit
Starred links: 1 amine or outer side, 2 acyl side, 3 side chain; linkers in the order of their positions; H or OH if unused. Positions of bridges follow the written chain, without caps; N, C: chain ends. Non-standard residues stand in square brackets, D forms with d. Residues, ends and D or L forms follow the SMILES beside them. Trp(2-yl) = O=C([C@H](Cc1c([*:3])[nH]c2ccccc12)N[*:1])[*:2]; Pro(trans-4-guanidino) = N=C(N)N[C@H]1CN[C@H](C(=O)O)C1; Pro(4R-SH) = O=C([C@@H]1C[C@@H](S[*:3])CN1[*:1])[*:2]; Ile(4R-OH,5-OH) = C[C@H]([C@H](N)C(=O)O)[C@@H](O)CO; X1 = N#C[C@@H]1C[C@@H](C(=O)[*:2])N([*:1])C1; Pro(4R-NH2) = N[C@H]1CN[C@H](C(=O)O)C1
experimental.readout: IC50 (nM)
Answer in nM, number only, no unit symbol.

CC[C@H](C)[C@@H]1NC(=O)CNC(=O)[C@@H]2Cc3c([nH]c4ccccc34)SC[C@H](NC(=O)CNC1=O)C(=O)N[C@@H](CC(N)=O)C(=O)N1C[C@H](C#N)C[C@H]1C(=O)N[C@@H]([C@@H](C)[C@@H](O)CO)C(=O)N2 [Compound 4, CN-Pro-amanitin] (cyclo(CN[X1][Ile(4R-OH,5-OH)][Trp(2-yl)]GIG); thioether 1-5)	480
CC[C@H](C)[C@@H]1NC(=O)CNC(=O)[C@@H]2Cc3c([nH]c4ccccc34)SC[C@H](NC(=O)CNC1=O)C(=O)N[C@@H](CC(N)=O)C(=O)N1C[C@H](N)C[C@H]1C(=O)N[C@@H]([C@@H](C)[C@@H](O)CO)C(=O)N2 [Compound 6, NH2-Pro-amanitin] (cyclo(CN[Pro(4R-NH2)][Ile(4R-OH,5-OH)][Trp(2-yl)]GIG); thioether 1-5)	550
CC[C@H](C)[C@@H]1NC(=O)CNC(=O)[C@@H]2Cc3c([nH]c4ccccc34)SC[C@H](NC(=O)CNC1=O)C(=O)N[C@@H](CC(N)=O)C(=O)N1C[C@H](S)C[C@H]1C(=O)N[C@@H]([C@@H](C)[C@@H](O)CO)C(=O)N2 [Compound 5, SH-Pro-amanitin] (cyclo(CN[Pro(4R-SH)][Ile(4R-OH,5-OH)][Trp(2-yl)]GIG); thioether 1-5)	910

Q) What measured IC50 goes with CC[C@H](C)[C@@H]1NC(=O)CNC(=O)[C@@H]2Cc3c([nH]c4ccccc34)SC[C@H](NC(=O)CNC1=O)C(=O)N[C@@H](CC(N)=O)C(=O)N1C[C@H](NC(=N)N)C[C@H]1C(=O)N[C@@H]([C@@H](C)[C@@H](O)CO)C(=O)N2 [Compound 7, Gdn-Pro-amanitin] (cyclo(CN[Pro(trans-4-guanidino)][Ile(4R-OH,5-OH)][Trp(2-yl)]GIG); thioether 1-5) ?
A) 410

----------
test.details: Cell viability assay (BrdU incorporation) on HEK293-OATP1B3 cells
Assay type: cell-based, human
protocol.conditions: human, HEK293-OATP1B3 cells (OATP1B3 overexpressing HEK293); highest used concentration of 1 μM; HEK293-OATP1B3 cells
experimental.readout: viability at 96 h, 1 µM (%)
Answer in %, number only, no unit symbol.

Q) What measured viability at 96 h, 1 µM goes with CC[C@H](C)[C@@H]1NC(=O)CNC(=O)[C@@H]2Cc3c([nH]c4cc(O)ccc34)[S@+]([O-])C[C@H](NC(=O)CNC1=O)C(=O)N[C@@H](CC(=O)O)C(=O)N1C[C@H](O)C[C@H]1C(=O)N[C@@H]([C@@H](C)[C@@H](O)CO)C(=O)N2 [β-amanitin, reference compound] ?
A) 0

----------
test.details: Cell viability assay (BrdU incorporation) on HEK293-OATP1B3 cells
Type: cell-based, human
protocol.conditions: human, HEK293-OATP1B3 cells (OATP1B3 overexpressing HEK293); HEK293-OATP1B3 cells; 96 h
Procedure: . HEK293 and HEK-OATP1B3 cells were plated at 2.5×10^3 cells/well in a 1:1 mixture of Ham's F12 with DMEM containing 10% charcoal-stripped fetal calf serum (FCS) onto poly-D-lysine-coated 96-well plates and grown for 24 hours. […] Following 96 h of drug exposure, cell viability was determined by a BrdU incorporation assay (Cell Proliferation ELISA, BrdU, Roche) and chemiluminescence was measured using a FLUOstar Optima plate reader (BMG LABtech). […]
experimental.readout: IC50 at 96 h (nM)
Answer in nM, number only, no unit symbol.

Q) What measured IC50 at 96 h goes with CC[C@H](C)[C@@H]1NC(=O)CNC(=O)[C@@H]2Cc3c([nH]c4cc(O)ccc34)[S@+]([O-])C[C@H](NC(=O)CNC1=O)C(=O)N[C@@H](CC(=O)O)C(=O)N1C[C@H](O)C[C@H]1C(=O)N[C@@H]([C@@H](C)[C@@H](O)CO)C(=O)N2 [β-amanitin, reference compound] ?
A) 8.5

----------
test.details: Viability assay against CHO cells (MTT colorimetric assay)
Type: cell-based, Chinese hamster
protocol.conditions: Chinese hamster, CHO cells, 1e-005 M; 72 h; replicates n = 1, 2, 3; read-out: % viable cells
Starred links: 1 amine or outer side, 2 acyl side, 3 side chain; linkers in the order of their positions; H or OH if unused. Positions of bridges follow the written chain, without caps; N, C: chain ends. Non-standard residues stand in square brackets, D forms with d. Residues, ends and D or L forms follow the SMILES beside them. Trp(2-yl) = O=C([C@H](Cc1c([*:3])[nH]c2ccccc12)N[*:1])[*:2]; X2 = [N-]=[N+]=N[C@@H]1C[C@@H](C(=O)[*:2])N([*:1])C1; Ile(4R-OH,5-OH) = C[C@H]([C@H](N)C(=O)O)[C@@H](O)CO; X5 = COC(=O)N[C@@H]1C[C@@H](C(=O)[*:2])N([*:1])C1; Pro(4R-NH2) = N[C@H]1CN[C@H](C(=O)O)C1
experimental.readout: viability at 72 h, 1e-05 M

# annotated cases, reported viability at 72 h, 1e-05 M shown
CC[C@H](C)[C@@H]1NC(=O)CNC(=O)[C@@H]2Cc3c([nH]c4ccccc34)SC[C@H](NC(=O)CNC1=O)C(=O)N[C@@H](CC(N)=O)C(=O)N1C[C@H](N)C[C@H]1C(=O)N[C@@H]([C@@H](C)[C@@H](O)CO)C(=O)N2 [Compound 6, NH2-Pro-amanitin] (cyclo(CN[Pro(4R-NH2)][Ile(4R-OH,5-OH)][Trp(2-yl)]GIG); thioether 1-5)	91%
CC[C@H](C)[C@@H]1NC(=O)CNC(=O)[C@@H]2Cc3c([nH]c4ccccc34)SC[C@H](NC(=O)CNC1=O)C(=O)N[C@@H](CC(N)=O)C(=O)N1C[C@H](N=[N+]=[N-])C[C@H]1C(=O)N[C@@H]([C@@H](C)[C@@H](O)CO)C(=O)N2 [Compound 3, N3-Pro-amanitin] (cyclo(CN[X2][Ile(4R-OH,5-OH)][Trp(2-yl)]GIG); thioether 1-5)	107%

Q) What measured viability at 72 h, 1e-05 M goes with CC[C@H](C)[C@@H]1NC(=O)CNC(=O)[C@@H]2Cc3c([nH]c4ccccc34)SC[C@H](NC(=O)CNC1=O)C(=O)N[C@@H](CC(N)=O)C(=O)N1C[C@H](NC(=O)OC)C[C@H]1C(=O)N[C@@H]([C@@H](C)[C@@H](O)CO)C(=O)N2 [Compound 32, MeOCONH-Pro-amanitin] (cyclo(CN[X5][Ile(4R-OH,5-OH)][Trp(2-yl)]GIG); thioether 1-5) ?
A) 86%

----------
test.details: Viability assay against CHO cells (MTT colorimetric assay)
Assay type: cell-based, Chinese hamster
protocol.conditions: Chinese hamster, CHO cells, 6.25e-007 M; 72 h; replicates n = 1, 2, 3; read-out: % viable cells
Starred links: 1 amine or outer side, 2 acyl side, 3 side chain; linkers in the order of their positions; H or OH if unused. Positions of bridges follow the written chain, without caps; N, C: chain ends. Non-standard residues stand in square brackets, D forms with d. Residues, ends and D or L forms follow the SMILES beside them. X4 = CC(C)(C)OC(=O)/N=C(\N)N[C@@H]1C[C@@H](C(=O)[*:2])N([*:1])C1; Trp(2-yl) = O=C([C@H](Cc1c([*:3])[nH]c2ccccc12)N[*:1])[*:2]; Ile(4R-OH,5-OH) = C[C@H]([C@H](N)C(=O)O)[C@@H](O)CO
experimental.readout: viability at 72 h, 6.25e-07 M (%)
Answer in %, number only, no unit symbol.

Q) What measured viability at 72 h, 6.25e-07 M goes with CC[C@H](C)[C@@H]1NC(=O)CNC(=O)[C@@H]2Cc3c([nH]c4ccccc34)SC[C@H](NC(=O)CNC1=O)C(=O)N[C@@H](CC(N)=O)C(=O)N1C[C@H](N/C(N)=N/C(=O)OC(C)(C)C)C[C@H]1C(=O)N[C@@H]([C@@H](C)[C@@H](O)CO)C(=O)N2 [Compound 9, Boc-Gdn-Pro-amanitin] (cyclo(CN[X4][Ile(4R-OH,5-OH)][Trp(2-yl)]GIG); thioether 1-5) ?
A) 84
